species on record: Rattus norvegicus; experiment: DrugMatrix - Regimen: Daily Repeat; type: toxicity, organism-based, Sprague-Dawley; design: regimen Daily Repeat, gender Male, age 6-8 weeks; conditions: in vivo, po, 0 mg/kg, 120 h, tissue Blood, route oral GAVAGE, dose level Control, time 5 day, vehicle .5 % CMC
metric: NEUTROPHIL

molecule | metric | result
COc1cc(/C=C/C(=O)O)ccc1O [FERULATE] | NEUTROPHIL | 7.67%
CCOc1cc(N)c(Cl)cc1C(=O)NCC1CN(Cc2ccc(F)cc2)CCO1 (configuration not stated) [MOSAPRIDE] | NEUTROPHIL | 8%
CCN1C[C@]2(COC)[C@H](O)C[C@H](OC)[C@@]34[C@@H]5C[C@@]6(O)[C@H](OC(=O)c7ccccc7)[C@@H]5[C@@](OC(C)=O)([C@@H]([C@H](OC)[C@H]23)[C@@H]14)[C@@H](O)[C@@H]6OC [ACONITINE] | NEUTROPHIL | 11.97%
CN(C)CCOC(c1ccccc1)c1ccccc1.Cn1c(=O)c2[nH]c(Cl)nc2n(C)c1=O [DIMENHYDRINATE] | NEUTROPHIL | 6.83%
CC(C)NCC(O)COc1ccc(CC(N)=O)cc1 (configuration not stated) [ATENOLOL] | NEUTROPHIL | 12.33%
Cc1cc2c(s1)Nc1ccccc1N=C2N1CCN(C)CC1 [OLANZAPINE] | NEUTROPHIL | 8.67%
CCN1CCN(c2cc3c(cc2F)c(=O)c(C(=O)O)cn3C2CC2)CC1 [ENROFLOXACIN] | NEUTROPHIL | 10.8%
CCN1CCCC1CNC(=O)c1cc(S(N)(=O)=O)ccc1OC (configuration not stated) [SULPIRIDE] | NEUTROPHIL | 6.67%
O=C(O)CCc1nc(-c2ccccc2)c(-c2ccccc2)o1 [OXAPROZIN] | NEUTROPHIL | 6.67%
Cl.NC[C@H]1CC[C@H](C(=O)Oc2ccc(CCC(=O)O)cc2)CC1 [CETRAXATE HYDROCHLORIDE] | NEUTROPHIL | 7.67%
O=C1c2ccccc2C(=O)C1c1ccccc1 [PHENINDIONE] | NEUTROPHIL | 11.97%
CC(C)(C#N)c1cc(Cn2cncn2)cc(C(C)(C)C#N)c1 [ANASTROZOLE] | NEUTROPHIL | 6.67%
CC(C)Cc1ccc([C@H](C)C(=O)O)cc1 [DEXIBUPROFEN] | NEUTROPHIL | 14.05%
COc1cc(NC(C)CCCN)c2ncccc2c1 (configuration not stated) [PRIMAQUINE] | NEUTROPHIL | 11%
NC(=O)NC(=O)Cc1ccccc1 [PHENACEMIDE] | NEUTROPHIL | 8.67%
CC(=O)Nc1ccc2c(c1)Cc1ccccc1-2 [2-ACETYLAMINOFLUORENE] | NEUTROPHIL | 8%
Nc1ccc(C(=O)O)c(O)c1 [AMINOSALICYLIC ACID] | NEUTROPHIL | 15%
CN(C)CCC=C1c2ccccc2COc2ccccc21 [DOXEPIN] | NEUTROPHIL | 12.33%
NC(=O)CN1CCCC1=O | NEUTROPHIL | 8.83%
NCC(CC(=O)O)c1ccc(Cl)cc1 (configuration not stated) [BACLOFEN] | NEUTROPHIL | 8%
COc1ccc(Cl)cc1C(=O)NCCc1ccc(S(=O)(=O)NC(=O)NC2CCCCC2)cc1 [GLYBURIDE] | NEUTROPHIL | 15%
CCN(CC)CCNC(=O)c1cc(Cl)c(N)cc1OC [METOCLOPRAMIDE] | NEUTROPHIL | 10.8%
